Origin of measurements: patent US20070224253A1

assay: Saturated solubility in potential delivery vehicle (oleic acid/dimethyl isosorbide/propylene glycol); conditions: 2% oleic acid: 2% dimethyl isosorbide: 96% propylene glycol, 32 °C, organic solvent or mixture, thermodynamic from solid, Solubility at 32° C., in 2% oleic acid: 2% dimethyl isosorbide: 96% propylene glycol, estimated from visual assessment only
Parameter: solubility

Prompt line: Quick one: solubility for CCC1(c2cccc(O)c2)CCCCN(C)C1 (stereo not shown) [Meptazinol free base, Meptazinol] ?
Response line: ~20 mg/mL

###

test: Saturated solubility in potential delivery vehicle (oleic acid/dimethyl isosorbide/propylene glycol); conditions: 2% oleic acid: 2% dimethyl isosorbide: 96% propylene glycol, 32 °C, organic solvent or mixture, thermodynamic from solid, Solubility at 32° C., in 2% oleic acid: 2% dimethyl isosorbide: 96% propylene glycol, measured by HPLC
Where a name gives a salt, the structure may show the parent alone.
Parameter: solubility (mg/mL)
Your answer is read as mg/mL, so omit the unit and give the number.

Prompt line: Quick one: solubility for CCC1(c2cccc(O)c2)CCCCN(C)C1 (stereo not shown) [Meptazinol hydrochloride, reference compound] ?
Response line: 78
